// values below are reported self-cleavage kobs at 10000 uM GlcN6P
B1: glmS ribozyme (parent)
chain: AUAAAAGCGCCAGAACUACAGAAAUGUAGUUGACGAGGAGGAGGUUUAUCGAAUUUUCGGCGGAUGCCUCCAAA

Variants of: B1
ASSAY DETAILS: self-cleavage kobs at 10000 uM GlcN6P; higher = faster cleavage; RNA array
CONDITION LABEL: with glucosamine-6-phosphate
This sample holds only a part of the variants without activity.
Reply numerically in s⁻¹, unit not repeated.

Here is how some variants turned out for self-cleavage kobs at 10000 uM GlcN6P.
biopolymer_sequence="AUAAAAGCGUCAGAACUACAGAAAUGUAGUUGACGAGGAGGAGGUUUAUCGAGUUUUCGGCGGAUGCCUCCAAA [C10U A53G]" quantity_kind="self-cleavage kobs at 10000 uM GlcN6P" uom=s⁻¹ reported_value=1.69e-05
biopolymer_sequence="AUAAAAGCGCCAGAGCUACAGAAAUGUAGUUGACGAGGAGGAGGUGUAUCGAAUUUUCGGCGGAUGCCUCCAAA [A15G U46G]" quantity_kind="self-cleavage kobs at 10000 uM GlcN6P" uom=s⁻¹ reported_value=0.00757
biopolymer_sequence="AUAAAAGCGCCAGAACUACAGAAAUGUAGCUGACGAGGAGGAGGUUUAUCGAAUUUUCGGCGGAUGCCGCCAAA [U30C U69G]" quantity_kind="self-cleavage kobs at 10000 uM GlcN6P" uom=s⁻¹ reported_value=2.39e-05
biopolymer_sequence="AUAAAAGCGCCAGAUCUACAGAAAUGUAGUUGACGAGGAGGAGGUUUAUCGAGUUUUCGGCGGAUGCCUCCAAA [A15U A53G]" quantity_kind="self-cleavage kobs at 10000 uM GlcN6P" uom=s⁻¹ reported_value=0.00681

# next variant below
Q. Give the measured self-cleavage kobs at 10000 uM GlcN6P for AUAAAAGCGCUAGAACUACAGAAAUGUAGUUGACGAGGAGGAGGUUCAUCGAAUUUUCGGCGGAUGCCUCCAAA [C11U U47C]
A. 8.15e-05
